TEST_PROTOCOL: Selectivity ratio of IC50 for MMP-2 to IC50 for pig kidney microsomal APN
Hi, to clarify the labels: label 1 covers Ratio IC50 from 2 upward, label 0 covers anything below 2.

- N[C@@H](CS)C(=O)NC[C@H](N)[C@@H](O)c1ccc([N+](=O)[O-])cc1: label 1
- Nc1ccc([C@H](O)[C@@H](N)CNC(=O)[C@H](N)Cc2ccccc2)cc1: label 0
- CC(C)C[C@H](N)C(=O)N[C@H](Cc1ccccc1)C(=O)NC[C@H](N)[C@@H](O)c1ccc([N+](=O)[O-])cc1: label 1
- CC(C)C[C@H](N)C(=O)N[C@H](Cc1ccccc1)C(=O)NC[C@H](N)[C@@H](O)c1ccc(I)cc1: label 1
- CC(C)C[C@H](NC(=O)[C@@H](O)CN)C(=O)NC[C@H](N)[C@@H](O)c1ccc([N+](=O)[O-])cc1: label 1
- N[C@H](Cc1ccccc1)C(=O)NC[C@H](N)[C@@H](O)c1ccc([N+](=O)[O-])cc1: label 0
- CC(C)C[C@H](N)C(=O)NC[C@H](N)[C@@H](O)c1ccc([N+](=O)[O-])cc1: label 0
- CC(C)C[C@H](N)C(=O)N[C@H](Cc1ccccc1)C(=O)NC[C@H](N)[C@@H](O)c1ccc(N)cc1: label 1

----------
Consider the following compounds and their measured pIC50 readings.
System: MDA-MB-231
TEST_PROTOCOL: Antiproliferative activity against human MDA-MB-231 cells expressing low levels of APN after 48 hrs by MTT assay
Format: functional, cell-based
RECORDED_CONDITIONS: MDA-MB-231, 48 h
pIC50: −log10 of the molar value.
EXPERIMENTAL_READOUT: pIC50

* N[C@@H](CS)C(=O)NC[C@H](N)[C@@H](O)c1ccc([N+](=O)[O-])cc1 | 2.37
* N[C@H](Cc1ccccc1)C(=O)NC[C@H](O)C(=O)NC[C@H](N)[C@@H](O)c1ccc([N+](=O)[O-])cc1 | 2.14
* NC[C@H](O)C(=O)N[C@H](Cc1ccccc1)C(=O)NC[C@H](N)[C@@H](O)c1ccc([N+](=O)[O-])cc1 | 2.38
* CC(C)C[C@H](N)C(=O)N[C@H](Cc1ccccc1)C(=O)NC[C@H](N)[C@@H](O)c1ccc([N+](=O)[O-])cc1 | 2.88
* CC(C)C[C@H](NC(=O)[C@@H](O)[C@H](N)Cc1ccccc1)C(=O)O | 2.29
* CC(C)C[C@H](N)C(=O)N[C@H](Cc1ccccc1)C(=O)NC[C@H](N)[C@@H](O)c1ccc(N)cc1 | 2.44
